Entry source: patent EP4671239A1

Experiment: Pharmacokinetics and bioavailability test in rats (Example 57)
Assay type: in vivo
Details: rat, plasma; SD rats, Oral 10 mg/kg; read-out: MRT(0-t)
quantity name: MRT last (h)

1. N#Cc1ccc(N[C@H]2CC[C@H](N(C(=O)NCc3ccccc3)c3ccc(N4CCN(C5CCN(c6cc7c(cc6F)C(=O)N(C6CCC(=O)NC6=O)C7=O)CC5)CC4)cc3)CC2)nc1 (stereo partly shown) [ZLC4-91] : 6.09

----------
Assay: Pharmacokinetics and bioavailability test in rats (Example 60)
Type: in vivo
Conditions: Sprague-Dawley, rat, plasma; SD rats, IV 2.5 mg/kg
quantity name: Cmax (ng/mL)

1. O=C1CCC(N2C(=O)c3ccc(N4CCC(CN5CCN(c6ccc(N(C(=O)NCc7ccccc7)[C@H]7CC[C@H](Nc8ncc9ccccc9n8)CC7)cc6)CC5)CC4)cc3C2=O)C(=O)N1 (stereo partly shown) : 2490
2. O=C1CCC(N2C(=O)c3ccc(N4CCC(N5CCN(c6ccc(N(C(=O)NCc7ccccc7F)[C@H]7CC[C@H](Nc8ncc9ccccc9n8)CC7)cc6)CC5)CC4)cc3C2=O)C(=O)N1 (stereo partly shown) : 3060
3. O=C1CCC(N2C(=O)c3ccc(N4CCC(N5CCN(c6ccc(N(C(=O)NCc7ccccc7)[C@H]7CC[C@H](Nc8ncc9ccccc9n8)CC7)cc6)CC5)CC4)cc3C2=O)C(=O)N1 (stereo partly shown) : 1390
4. O=C1CCC(N2C(=O)c3ccc(N4CCC(N5CCN(c6ccc(N(C(=O)NCc7ccccc7)[C@H]7CC[C@H](Nc8ncc9ccccc9n8)CC7)cn6)CC5)CC4)cc3C2=O)C(=O)N1 (stereo partly shown) : 3620
5. O=C1CCC(N2C(=O)c3cc(F)c(N4CCC(N5CCN(c6ccc(N(C(=O)NCc7ccccc7)[C@H]7CC[C@H](Nc8ncc9ccccc9n8)CC7)cc6)CC5)CC4)cc3C2=O)C(=O)N1 (stereo partly shown) : 2510
6. O=C1CCC(N2C(=O)c3ccc(N4CCC(N5CCN(c6ccc(N(C(=O)NCc7ccccc7)[C@H]7CC[C@H](Nc8ncc9ccccc9n8)CC7)cc6F)CC5)CC4)cc3C2=O)C(=O)N1 (stereo partly shown) : 2290
7. O=C1CCC(N2C(=O)c3cc(F)c(N4CCC(N5CCN(c6ccc(N(C(=O)NCc7ccccc7)[C@H]7CC[C@H](Nc8ncc9ccccc9n8)CC7)cn6)CC5)CC4)cc3C2=O)C(=O)N1 (stereo partly shown) : 3120

----------
Experiment: Pharmacokinetics and bioavailability test in rats (Example 57)
Assay type: in vivo
Conditions: Sprague-Dawley, rat, plasma, iv; SD rats, i.v. 2.5 mg/kg
quantity name: half-life (h)

1) N#Cc1ccc(N[C@H]2CC[C@H](N(C(=O)NCc3ccccc3)c3ccc(N4CCN(C5CCN(c6ccc7c(c6)C(=O)N(C6CCC(=O)NC6=O)C7=O)CC5)CC4)cc3)CC2)nc1 (stereo partly shown) : 2.38

----------
Experiment: Pharmacokinetics and bioavailability test in rats (Example 60)
Format: in vivo
Settings: rat, in vivo; SD rats, IP 10 mg/kg
Protocol: Pharmacokinetics and bioavailability tests in rats. SD rats were given a single oral (10 mg/kg), intravenous (2.5 mg/kg) and intraperitoneal (10 mg/kg) dose, followed by animal blood sample collection at appropriate time points. Heparin was added for anticoagulation, and the samples were centrifuged at 8000 rpm for 6 min. […] The oral bioavailability of the compounds was calculated based on the area under the plasma concentration-time curve (AUC) data. […]
quantity name: Tmax

1. O=C1CCC(N2C(=O)c3ccc(N4CC(CN5CCN(c6ccc(N(C(=O)NCc7ccccc7)[C@H]7CC[C@H](Nc8ncc9ccccc9n8)CC7)cc6)CC5)C4)cc3C2=O)C(=O)N1 (stereo partly shown) : 6.67 h

----------
Test: Pharmacokinetics and bioavailability test in rats (Example 57)
Type: in vivo
Conditions: Sprague-Dawley, rat, plasma; SD rats, Oral 10 mg/kg
Protocol: Pharmacokinetics and bioavailability tests in rats. SD rats were given a single oral (10 mg/kg), intravenous (2.5 mg/kg) and intraperitoneal (10 mg/kg) dose, followed by animal blood sample collection at appropriate time points. Heparin was added for anticoagulation, and the samples were centrifuged at 8000 rpm for 6 min. […] The oral bioavailability of the compounds was calculated based on the area under the plasma concentration-time curve (AUC) data. […]
quantity name: AUC(0-inf) (ng·h/mL)

1) N#Cc1ccc(N[C@H]2CC[C@H](N(C(=O)NCc3ccccc3)c3ccc(N4CCN(C5CCN(c6ccc7c(c6)C(=O)N(C6CCC(=O)NC6=O)C7=O)CC5)CC4)cc3)CC2)nc1 (stereo partly shown) : 3130

----------
Test system: CDK12 and CDK13 proteins
Assay: Degradation activity on CDK12/13 in 22RV1 cells (Western Blot)
Format: cell-based
Settings: 22RV1 cells, 500 nM, 6 hours, WB (FIG. 4)
quantity name: degradation of CDK12 and CDK13 protein levels in cells

1) O=C1CCC(N2C(=O)c3ccc(N4CCC(N5CCN(c6ccc(N(C(=O)NCc7ccccc7)[C@H]7CC[C@H](Nc8ncc9ccccc9n8)CC7)cc6F)CC5)CC4)cc3C2=O)C(=O)N1 (some centres unmarked) : effectively degrade
2) O=C1CCC(N2C(=O)c3ccc(N4CCN(C5CCN(c6ccc(N(C(=O)NCc7ccccc7)[C@H]7CC[C@H](Nc8ncc9ccccc9n8)CC7)cc6)CC5)CC4)cc3C2=O)C(=O)N1 (some centres unmarked) : effectively degrade
3) O=C1CCC(N2C(=O)c3cc(F)c(N4CCC(N5CCN(c6ccc(N(C(=O)NCc7ccccc7)[C@H]7CC[C@H](Nc8ncc9ccccc9n8)CC7)cc6)CC5)CC4)cc3C2=O)C(=O)N1 (some centres unmarked) : effectively degrade
4) O=C1CCC(N2C(=O)c3ccc(N4CCC(N5CCN(c6ccc(N(C(=O)NCc7ccccc7)[C@H]7CC[C@H](Nc8ncc9ccccc9n8)CC7)cn6)CC5)CC4)cc3C2=O)C(=O)N1 (some centres unmarked) : effectively degrade
5) O=C1CCC(N2C(=O)c3ccc(N4CCC(N5CCN(c6ccc(N(C(=O)NCc7ccccc7)[C@H]7CC[C@H](Nc8ncc9ccccc9n8)CC7)cc6)CC5)CC4)cc3C2=O)C(=O)N1 (some centres unmarked) : effectively degrade
